# test method notes: Study-2 multiple-dose day 14 pharmacokinetics (plasma)
# Format: in vivo, human
# recorded conditions: human, plasma, oral; Study-2, 90 mg QD, Day 14; geo mean (GeoCV%)
value type: MRT (h)
Answer in h, number only, no unit symbol.

Input [O-][n+]1cccc(-c2nc3c(Cl)cccc3cc2[C@@H](Nc2ncnc3cccnc23)C(F)(F)F)c1 . Output MRT: 24.7

---

# test method notes: Study-2 single-dose pharmacokinetics (plasma)
# Type: in vivo, human
# recorded conditions: human, plasma, oral; Study-2 single dose, 60 mg QD cohort; median (range); read-out: tmax
value type: Tmax (h)
Answer in h, number only, no unit symbol.

// recorded Tmax for [O-][n+]1cccc(-c2nc3c(Cl)cccc3cc2[C@@H](Nc2ncnc3cccnc23)C(F)(F)F)c1 [Seletalisib, seletalisib] : 3

---

# test method notes: Study-2 single-dose pharmacokinetics (plasma)
# Assay type: in vivo, human
# recorded conditions: human, plasma, oral; Study-2 single dose, 90 mg QD cohort; geo mean (GeoCV%); read-out: t1/2 (converted)
value type: half-life (h)
Give the quantity in h, number only.

Reported half-life for [O-][n+]1cccc(-c2nc3c(Cl)cccc3cc2[C@@H](Nc2ncnc3cccnc23)C(F)(F)F)c1 was 20.8

---

# test method notes: Study-1 Part-B multiple ascending dose pharmacokinetics (plasma and urine)
# Type: in vivo, human
# recorded conditions: human, plasma, oral, 5 mg, Study-1 Part-B, 5 mg, Day 1; median (range); read-out: tmax
value type: Tmax

The recorded Tmax for entry [O-][n+]1cccc(-c2nc3c(Cl)cccc3cc2[C@@H](Nc2ncnc3cccnc23)C(F)(F)F)c1 equals 4.01 h

---

# test method notes: Study-2 multiple-dose day 14 pharmacokinetics (plasma)
# Type: in vivo, human
# recorded conditions: human, plasma, oral; Study-2, 60 mg QD, Day 14; geo mean (GeoCV%)
# Protocol: These were phase I, randomised, double-blind, placebo-controlled studies designed to evaluate the safety, tolerability, PK and PD profiles of seletalisib following oral administration of single ascending doses and multiple ascending doses. […] Plasma concentrations of seletalisib were measured by high-performance liquid chromatography with tandem mass spectrometry (see Online Resource S1 for further details). […]
value type: half-life (h)
Please give a number only; it is taken to be in h.

half-life in this record for [O-][n+]1cccc(-c2nc3c(Cl)cccc3cc2[C@@H](Nc2ncnc3cccnc23)C(F)(F)F)c1 : 24.6

---

# test method notes: Study-1 Part-A single ascending dose pharmacokinetics (plasma and urine)
# Format: in vivo, human
# recorded conditions: human, plasma, oral, 1 mg, Study-1 Part-A, single dose 1 mg fasted; geo mean (GeoCV%); read-out: t1/2 (converted)
value type: half-life (h)
Only the number, expressed in h, is required.

Item: [O-][n+]1cccc(-c2nc3c(Cl)cccc3cc2[C@@H](Nc2ncnc3cccnc23)C(F)(F)F)c1 | half-life: 18.5

---

# test method notes: Study-1 Part-B multiple ascending dose pharmacokinetics (plasma and urine)
# Type: in vivo, human
# recorded conditions: human, plasma, oral; Study-1 Part-B, 5 mg, Day 1; geo mean (GeoCV%)
value type: Cmax (ng/mL)
// units = ng/mL; emit number, no label

Kindly note the recorded Cmax for [O-][n+]1cccc(-c2nc3c(Cl)cccc3cc2[C@@H](Nc2ncnc3cccnc23)C(F)(F)F)c1 , which is 122

---

# test method notes: Study-2 single-dose pharmacokinetics (plasma)
# Format: in vivo, human
# recorded conditions: human, plasma, oral, 45 mg, Study-2 single dose, 45 mg QD cohort; geo mean (GeoCV%); read-out: AUC(0–24)
value type: AUC(0-t) (ng·h/mL)
Write it as a number; the unit ng·h/mL goes unstated.

Reported AUC(0-t) of [O-][n+]1cccc(-c2nc3c(Cl)cccc3cc2[C@@H](Nc2ncnc3cccnc23)C(F)(F)F)c1 : 9280

---

# test method notes: Study-2 single-dose pharmacokinetics (plasma)
# Type: in vivo, human
# recorded conditions: human, plasma, oral; Study-2 single dose, 45 mg QD cohort; geo mean (GeoCV%); read-out: Cmax
value type: Cmax (ng/mL)
Numbers only here, please. The scale is ng/mL.

According to the records, this molecule [O-][n+]1cccc(-c2nc3c(Cl)cccc3cc2[C@@H](Nc2ncnc3cccnc23)C(F)(F)F)c1 [Seletalisib, seletalisib] displays Cmax of 691

---

# test method notes: Study-2 single-dose pharmacokinetics (plasma)
# Format: in vivo, human
# recorded conditions: human, plasma, oral; Study-2 single dose, 30 mg QD cohort; geo mean (GeoCV%); read-out: t1/2 (converted)
value type: half-life (h)
Return type: number; implicit unit h.

Given item [O-][n+]1cccc(-c2nc3c(Cl)cccc3cc2[C@@H](Nc2ncnc3cccnc23)C(F)(F)F)c1 [Seletalisib, seletalisib] , the value recorded as its half-life is 19.5

---

# test method notes: Study-1 Part-A single ascending dose pharmacokinetics (plasma and urine)
# Format: in vivo, human
# recorded conditions: human, plasma, oral, Study-1 Part-A, single dose, range across fasted treatment groups; read-out: median tmax
value type: Tmax

Summary for this molecule, [O-][n+]1cccc(-c2nc3c(Cl)cccc3cc2[C@@H](Nc2ncnc3cccnc23)C(F)(F)F)c1 [Seletalisib, seletalisib] : Tmax is 1.8 to 3 h

---

# test method notes: Study-1 Part-B multiple ascending dose pharmacokinetics (plasma and urine)
# Assay type: in vivo, human
# recorded conditions: human, plasma, oral, 8 mg, Study-1 Part-B, 8 mg, Day 14; geo mean (GeoCV%); read-out: AUC(0–24)
value type: AUC(0-t)
Mention the unit after the number when you answer.

Value of measured AUC(0-t) for the entry [O-][n+]1cccc(-c2nc3c(Cl)cccc3cc2[C@@H](Nc2ncnc3cccnc23)C(F)(F)F)c1 : 4370 ng·h/mL

---

# test method notes: Study-2 single-dose pharmacokinetics (plasma)
# Assay type: in vivo, human
# recorded conditions: human, plasma, oral; Study-2 single dose, 60 mg QD cohort; geo mean (GeoCV%)
value type: AUC (ng·h/mL)
Answer in ng·h/mL, number only, no unit symbol.

Record [O-][n+]1cccc(-c2nc3c(Cl)cccc3cc2[C@@H](Nc2ncnc3cccnc23)C(F)(F)F)c1 . Reported AUC: 27400

---

# test method notes: Study-2 multiple-dose day 14 pharmacokinetics (plasma)
# Format: in vivo, human
# recorded conditions: human, plasma, oral, 45 mg, Study-2, 45 mg QD, Day 14; geo mean (GeoCV%); read-out: AUC(0–t)
value type: AUC(0-t) (ng·h/mL)
Answer with a number only, understood to be in ng·h/mL.

Entry [O-][n+]1cccc(-c2nc3c(Cl)cccc3cc2[C@@H](Nc2ncnc3cccnc23)C(F)(F)F)c1 — recorded AUC(0-t) = 30100

---

# test method notes: Study-2 single-dose pharmacokinetics (plasma)
# Type: in vivo, human
# recorded conditions: human, plasma, oral; Study-2 single dose, 30 mg QD cohort; geo mean (GeoCV%); read-out: Cmax
value type: Cmax (ng/mL)
# number only, unit ng/mL dropped from output

Sample [O-][n+]1cccc(-c2nc3c(Cl)cccc3cc2[C@@H](Nc2ncnc3cccnc23)C(F)(F)F)c1 ; Cmax observed: 517

---

# test method notes: Study-1 Part-A single ascending dose pharmacokinetics (plasma and urine)
# Format: in vivo, human
# recorded conditions: human, urine and plasma, oral, 5 mg, Study-1 Part-A, single dose 5 mg fasted; geo mean (GeoCV%)
value type: CL renal (mL/min)
# unit: mL/min | format: bare number

Record [O-][n+]1cccc(-c2nc3c(Cl)cccc3cc2[C@@H](Nc2ncnc3cccnc23)C(F)(F)F)c1 , field CL renal: 1.95

---

# test method notes: Study-2 single-dose pharmacokinetics (plasma)
# Format: in vivo, human
# recorded conditions: human, plasma, oral; Study-2 single dose, 90 mg QD cohort; geo mean (GeoCV%)
value type: AUC (ng·h/mL)
Numeric only. Scale: ng·h/mL

The value of AUC measured for the molecule [O-][n+]1cccc(-c2nc3c(Cl)cccc3cc2[C@@H](Nc2ncnc3cccnc23)C(F)(F)F)c1 turned out to be 34900

---

# test method notes: Study-2 single-dose pharmacokinetics (plasma)
# Format: in vivo, human
# recorded conditions: human, plasma, oral, 30 mg, Study-2 single-dose part, 30 mg BID cohort; geo mean (GeoCV%); read-out: AUC(0–10)
value type: AUC(0-t) (ng·h/mL)
Could you give me the number in ng·h/mL? Just the number is fine.

The recorded AUC(0-t) for entry [O-][n+]1cccc(-c2nc3c(Cl)cccc3cc2[C@@H](Nc2ncnc3cccnc23)C(F)(F)F)c1 equals 3500

---

# test method notes: Study-2 multiple-dose day 14 pharmacokinetics (plasma)
# Assay type: in vivo, human
# recorded conditions: human, plasma, oral, 30 mg, Study-2, 30 mg QD, Day 14; geo mean (GeoCV%); read-out: AUC(0–24)
value type: AUC(0-t) (µg·h/mL)
Numeric only. Scale: µg·h/mL

AUC(0-t) for [O-][n+]1cccc(-c2nc3c(Cl)cccc3cc2[C@@H](Nc2ncnc3cccnc23)C(F)(F)F)c1 is 14.1

---

# test method notes: Study-1 Part-B multiple ascending dose pharmacokinetics (plasma and urine)
# Type: in vivo, human
# recorded conditions: human, plasma, oral; Study-1 Part-B, 8 mg, Day 14; geo mean (GeoCV%)
value type: half-life (min)
Express your answer in min, writing the number without its unit.

// field: half-life; key: [O-][n+]1cccc(-c2nc3c(Cl)cccc3cc2[C@@H](Nc2ncnc3cccnc23)C(F)(F)F)c1 [Seletalisib, seletalisib] ; value = 1370
